Species on record: Bos taurus
PROTOCOL SUMMARY: Inhibition of [3H]colchicine binding to bovine brain tubulin at 1 uM measured after 10 mins by scintillation counting method relative to control

| COMPOUND | inhibition [%] |
| --- | --- |
| COc1ccc(N(C)c2nc(C)nc3c2CCC3)cc1C | 59 |
| COc1ccc(N(C)c2nc(C)nc3c2CCC3)cc1 | 70 |
| Cc1nc2c(c(N(C)c3ccc(N(C)C)cc3)n1)CCC2 | 65 |
| Cc1nc2c(c(N(C)c3ccc([S+](C)[O-])cc3)n1)CCC2 (stereo unspecified) | 79 |
| Cc1nc2c(c(N(C)c3ccc4c(c3)CCO4)n1)CCC2 | 64 |
| CSc1ccc(N(C)c2nc(C)nc3c2CCC3)cc1 | 74 |

* * *

Each entry below carries its recorded IC50.
PROTOCOL SUMMARY: Inhibition of bovine brain tubulin polymerization assessed as reduction in tubulin assembly pretreated for 15 mins followed by GTP addition by spectrophotometric method
Parameters: species or system Bos taurus

| MOLECULE | UNIT ABBREVIATION | IC50 |
| --- | --- | --- |
| Cc1nc2c(c(N(C)c3ccc(N(C)C)cc3)n1)CCC2 | µM | 1.2 |
| CSc1ccc(N(C)c2nc(C)nc3c2CCC3)cc1 | µM | 1.3 |
| COc1ccc(N(C)c2nc(C)nc3c2CCC3)cc1C | µM | 1.1 |
| Cc1nc2c(c(N(C)c3ccc4c(c3)CCO4)n1)CCC2 | µM | 1.2 |
| COc1ccc(N(C)c2nc(C)nc3c2CCC3)cc1 | µM | 1.6 |
| Cc1nc2c(c(N(C)c3ccc([S+](C)[O-])cc3)n1)CCC2 (stereo unspecified) | µM | 1.1 |

* * *

Item-by-item account of IC50
System: MDA-MB-435 (human)
PROTOCOL SUMMARY: Antiproliferative activity against human MDA-MB-435 cells by SRB assay

| CHEMICAL STRUCTURE | MEASURED ON | IC50 |
| --- | --- | --- |
| Cc1nc2c(c(N(C)c3ccc(N(C)C)cc3)n1)CCC2 | MDA-MB-435 (human) | 8.2 nM |
| COc1ccc(N(C)c2nc(C)nc3c2CCC3)cc1C | MDA-MB-435 (human) | 18.4 nM |
| CSc1ccc(N(C)c2nc(C)nc3c2CCC3)cc1 | MDA-MB-435 (human) | 4.6 nM |
| CNc1ccc(N(C)c2nc(C)nc3c2CCC3)cc1 | MDA-MB-435 (human) | 20 nM |
| Cc1nc2c(c(N(C)c3ccc(N)cc3)n1)CCC2 | MDA-MB-435 (human) | 1220 nM |
| COc1ccc(CN(C)c2nc(C)nc3c2CCC3)cc1 | MDA-MB-435 (human) | 450 nM |

* * *

PROTOCOL SUMMARY: Stability in human liver microsome assessed as parent compound remaining at 20 uM after 60 mins in presence of NADPH by LC-MS/MS analysis
Format: ADME
DETAILS: liver microsomes, read-out: Stability

| CHEMICAL STRUCTURE | remaining at 1 h, 20 µM, % |
| --- | --- |
| CSc1ccc(N(C)c2nc(C)nc3c2CCC3)cc1 | 46.4 |

* * *

Species on record: Bos taurus
PROTOCOL SUMMARY: Inhibition of [3H]colchicine binding to bovine brain tubulin at 5 uM measured after 10 mins by scintillation counting method relative to control
Each item that follows carries a reported inhibition.

| MOLECULE | UNIT ABBREVIATION | inhibition |
| --- | --- | --- |
| Cc1nc2c(c(N(C)c3ccc4c(c3)CCO4)n1)CCC2 | % | 85 |
| COc1ccc(N(C)c2nc(C)nc3c2CCC3)cc1 | % | 92 |
| COc1ccc(N(C)c2nc(C)nc3c2CCC3)cc1C | % | 83 |
| CSc1ccc(N(C)c2nc(C)nc3c2CCC3)cc1 | % | 92 |
| Cc1nc2c(c(N(C)c3ccc(N(C)C)cc3)n1)CCC2 | % | 85 |
| Cc1nc2c(c(N(C)c3ccc([S+](C)[O-])cc3)n1)CCC2 (stereo unspecified) | % | 93 |

* * *

Tested on: MDA-MB-435 (human)
PROTOCOL SUMMARY: Antiproliferative activity against human MDA-MB-435 cells by SRB assay
This listing pairs compounds with measured IC50.
ENDPOINT NAME: IC50 (nM)

| COMPOUND | MEASURED ON | RECORDED MEASUREMENT |
| --- | --- | --- |
| Cc1nc2c(c(N(C)c3ccc4c(c3)CCO4)n1)CCC2 | MDA-MB-435 (human) | 12.1 |
| COc1ccc(/C=C\c2cc(OC)c(OC)c(OC)c2)cc1O [COMBRETASTATIN A4] | MDA-MB-435 (human) | 3.4 |
| Cc1nc2c(c(N(C)c3ccc([S+](C)[O-])cc3)n1)CCC2 (centres undefined) | MDA-MB-435 (human) | 7.9 |
| Cc1nc2c(c(N(C)c3ccc(O)cc3)n1)CCC2 | MDA-MB-435 (human) | 405 |
